Molecular target: human CD33 variant Y49R (human, UniProt P20138 18-364)
Sequence (P20138 18-364 Y49R limits assumed): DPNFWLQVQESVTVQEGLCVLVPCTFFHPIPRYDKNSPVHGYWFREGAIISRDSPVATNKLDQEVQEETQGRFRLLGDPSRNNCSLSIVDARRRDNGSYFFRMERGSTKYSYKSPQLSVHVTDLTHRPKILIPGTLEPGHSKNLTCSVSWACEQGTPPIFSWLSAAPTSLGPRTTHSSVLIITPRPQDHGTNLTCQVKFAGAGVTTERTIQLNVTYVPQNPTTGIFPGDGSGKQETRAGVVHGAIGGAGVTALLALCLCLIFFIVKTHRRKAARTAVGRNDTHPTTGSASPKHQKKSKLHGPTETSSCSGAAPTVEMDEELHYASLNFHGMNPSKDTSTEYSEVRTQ
Test: flow cytometry, IgG on cells expressing the mutant
readout-kind: Mean % WT Binding

Example cases with answers are listed next.
IN: If you can, please state the reported Mean % WT Binding value of Refmab #1 (antibody, human IgG1, V domains shown, Tested in IgG format; human IgG1 (Absolute Antibody hP67.6, Cat. No. Ab00283-10.0); also called hP67.6) VH: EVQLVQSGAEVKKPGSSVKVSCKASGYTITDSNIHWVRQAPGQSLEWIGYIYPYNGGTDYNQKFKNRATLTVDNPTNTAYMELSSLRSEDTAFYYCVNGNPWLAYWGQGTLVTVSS VL: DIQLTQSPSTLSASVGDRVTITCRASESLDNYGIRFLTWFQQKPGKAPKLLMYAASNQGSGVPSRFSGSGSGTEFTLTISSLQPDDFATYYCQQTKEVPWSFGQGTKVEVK .
OUT: 87.1 % of WT

IN: Proceed to Refmab #4 (antibody, human IgG1, V domains shown, Tested in IgG format; human IgG1 Fc silent (PG-LALA)) VH: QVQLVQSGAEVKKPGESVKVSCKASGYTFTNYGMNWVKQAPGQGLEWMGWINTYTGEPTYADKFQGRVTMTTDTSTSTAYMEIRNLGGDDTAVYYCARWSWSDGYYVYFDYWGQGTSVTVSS VL: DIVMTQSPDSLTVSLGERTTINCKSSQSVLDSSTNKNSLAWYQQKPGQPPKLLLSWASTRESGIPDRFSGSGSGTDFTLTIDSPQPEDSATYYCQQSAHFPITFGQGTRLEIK
OUT: 55.7 % of WT

IN: Proceed to Refmab #3 (antibody, human IgG1, V domains shown, Tested in IgG format; human IgG1 Fc silent (PG-LALA)) VH: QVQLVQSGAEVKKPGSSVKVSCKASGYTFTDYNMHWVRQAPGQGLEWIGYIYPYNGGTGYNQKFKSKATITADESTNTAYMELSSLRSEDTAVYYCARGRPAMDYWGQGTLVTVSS VL: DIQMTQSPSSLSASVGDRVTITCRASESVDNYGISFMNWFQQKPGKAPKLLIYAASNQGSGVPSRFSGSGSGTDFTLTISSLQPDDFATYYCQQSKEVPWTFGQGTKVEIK
OUT: 79 % of WT

Others:
IN: If you can, please state the reported Mean % WT Binding value of Refmab #2 (antibody, human IgG1, V domains shown, Tested in IgG format; human IgG1 Fc silent (PG-LALA)) VH: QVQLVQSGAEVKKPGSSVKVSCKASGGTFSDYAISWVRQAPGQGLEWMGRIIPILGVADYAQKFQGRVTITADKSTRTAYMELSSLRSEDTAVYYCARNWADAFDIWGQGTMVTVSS VL: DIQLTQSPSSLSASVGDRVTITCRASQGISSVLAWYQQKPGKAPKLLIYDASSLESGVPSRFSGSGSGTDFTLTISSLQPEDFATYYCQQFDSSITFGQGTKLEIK .
OUT: 44.9 % of WT

Reference source: patent US20260242735A1
